Source: patent US8729082B2

# TARGET_SYSTEM: human kinase Mps-1 (Homo sapiens, UniProt P33981)
# Construct: N-terminally GST-tagged human full length recombinant Mps-1 kinase
# Sequence (P33981 whole entry): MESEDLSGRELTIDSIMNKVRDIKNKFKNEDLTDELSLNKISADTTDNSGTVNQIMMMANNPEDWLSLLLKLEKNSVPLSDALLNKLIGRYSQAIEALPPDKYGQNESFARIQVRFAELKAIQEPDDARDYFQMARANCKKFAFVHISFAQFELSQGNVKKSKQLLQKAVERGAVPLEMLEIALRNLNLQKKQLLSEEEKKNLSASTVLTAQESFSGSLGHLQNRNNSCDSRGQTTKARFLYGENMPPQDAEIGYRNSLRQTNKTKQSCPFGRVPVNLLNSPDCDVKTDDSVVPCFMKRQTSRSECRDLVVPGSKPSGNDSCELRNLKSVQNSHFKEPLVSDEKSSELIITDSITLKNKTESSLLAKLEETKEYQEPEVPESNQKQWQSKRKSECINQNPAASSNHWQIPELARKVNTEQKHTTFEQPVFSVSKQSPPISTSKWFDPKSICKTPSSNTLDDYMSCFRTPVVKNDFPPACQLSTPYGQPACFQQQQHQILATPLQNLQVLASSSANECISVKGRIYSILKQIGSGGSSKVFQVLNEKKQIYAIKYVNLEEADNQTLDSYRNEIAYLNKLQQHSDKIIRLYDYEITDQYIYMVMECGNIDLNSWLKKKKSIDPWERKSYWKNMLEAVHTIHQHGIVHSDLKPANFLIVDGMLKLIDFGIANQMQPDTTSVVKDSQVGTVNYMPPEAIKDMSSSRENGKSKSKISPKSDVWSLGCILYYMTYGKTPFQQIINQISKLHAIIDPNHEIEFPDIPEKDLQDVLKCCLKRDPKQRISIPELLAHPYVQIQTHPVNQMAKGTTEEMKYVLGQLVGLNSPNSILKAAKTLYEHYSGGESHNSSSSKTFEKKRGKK
# EXPERIMENT: Mps-1 kinase assay (HTRF)
# EXPERIMENTAL_PARAMETERS: lowATP; mean; read-out: Mps1 lowATP mean IC50
MEASUREMENT_LABEL: pIC50
Friendly reminder that pIC50 comes from taking -log10 of the concentration in mol/L.

Q: Entry CC(C)CNc1nc2ccccc2n2c(-c3ccc(C(=O)NC4(c5ccccn5)CC4)cc3)cnc12 : reported pIC50 = ?
Result: 5.85

Q: Entry O=C(NC1CC1)c1ccc(-c2cnc3c(NCc4cccnc4)nc4ccccc4n23)cc1 : reported pIC50 = ?
Result: 7.00

Q: Entry CCNC(=O)c1ccc(-c2cnc3c(NCC(C)C)nc4ccccc4n23)cc1 : reported pIC50 = ?
Result: 6.87

Q: Entry CC(C)CNc1nc2ccccc2n2c(-c3ccc(C(=O)NCCS(N)(=O)=O)cc3)cnc12 : reported pIC50 = ?
Result: 5.23

Q: Entry CC(C)CNc1nc2ccccc2n2c(-c3ccc(C(=O)NC(C)CO)cc3)cnc12 (centres unmarked) : reported pIC50 = ?
Result: 5.96

Q: Entry Cc1ccc(-c2cnc3c(NCC(C)C)nc4ccccc4n23)c(F)c1 : reported pIC50 = ?
Result: 5.23

---
Q: Entry CC(C)CNc1nc2ccccc2n2c(-c3cccc(F)c3F)cnc12 : reported pIC50 = ?
Result: 4.79

Q: Entry CC(C)CNc1nc2ccccc2n2c(-c3ccc(C(=O)O)cc3)cnc12 : reported pIC50 = ?
Result: 4.92
